Cited source: PubChem BioAssay (NCI)

system: M14 melanoma; assay: NCI-60 one-dose screen, 48 h (100 = growth as untreated, 0 = no growth, -100 = all killed); conditions: 10 µM unless noted
The panel holds about 83,000 compounds, 20% with a hit somewhere; the sample as a whole holds those more often.
quantityKind: growth (%)

molecule=COc1ccc(C(=O)c2c(N)nc3n2CCCC3)cc1OC reportedmeasurement=103
molecule=COc1cc2nccc(Oc3ccc(NC(=O)C4(C(=O)Nc5ccc(F)cc5)CC4)cc3)c2cc1Oc1ccc(N)cn1 reportedmeasurement=39.8
molecule=COc1ccc(-c2nc(-c3ccccc3OCc3ccccc3OC)nc(C)c2C(C)=O)cc1 reportedmeasurement=84.2
molecule="COc1cc(C2CC(c3ccc(Cl)cc3)=NN2C=O)ccc1OS(=O)(=O)c1ccc(C)cc1 (centres undefined)" reportedmeasurement=84
molecule="CC(=O)OC1Oc2ccccc2-c2oc3nc(=N)n(C)c-3cc21 (centres undefined)" reportedmeasurement=98.7
molecule=COc1cc(C(=O)/C=C/c2cn(-c3ccccc3)nc2-c2cccc(Nc3ccnc4cc(Cl)ccc34)c2)cc(OC)c1OC reportedmeasurement=100
molecule=Fc1ccc2nc(-c3ccc(-c4noc(-c5ccc(Cl)cc5)n4)cc3)[nH]c2c1 reportedmeasurement=107
molecule=CCSc1ccc([C@@H]2[C@@H](O)C(=O)N2c2cc(OC)c(OC)c(OC)c2)cc1 reportedmeasurement=10.4
molecule=N#Cc1c(N)c(C(=O)c2ccc3c(c2)OCCO3)n2c1CCCC2 reportedmeasurement=19.4
molecule=COc1ccc(/C=C(/C(=O)N2CCN(c3ccccc3)CC2)c2cc(OC)c(OC)c(OC)c2)cc1O reportedmeasurement=3.13
molecule=O=c1cc(N2CCOCC2)oc2c(-c3ccc4c(c3)OCCO4)csc12 reportedmeasurement=12.3
molecule=Cc1cc(O)ccc1C1=NN(c2ccc(S(N)(=O)=O)cc2)C(=O)CC1 reportedmeasurement=29.7
molecule="COc1cc(NC(C)CCCN)c2ncccc2c1Sc1ccc(Cl)cc1 (centres undefined)" reportedmeasurement=27.5
molecule=COc1ccc([C@@H]2[C@@H](Cl)C(=O)N2c2cc(OC)c(OC)c(OC)c2)cc1C reportedmeasurement=11.7
molecule=CN(CCO)c1ccc(N2Cc3ccccc3OC3=C2C(=O)c2c(O)ccc(O)c2C3=O)cn1 reportedmeasurement=-89
molecule=Cc1cc(C#Cc2ccccc2)ccc1-n1c(/C=C/c2ccc(F)cc2)nc2ccccc2c1=O reportedmeasurement=81.2
molecule="COc1cc(C2Nc3ccccc3S2)cc(CN2CCOCC2)c1O (centres undefined)" reportedmeasurement=55.5
molecule=O=C(OCc1ccc2c(Br)cc(Br)c(O)c2n1)c1cc2ccccc2[nH]1 reportedmeasurement=-64.7
molecule=CCCCc1n(Cc2ccc3ccccc3n2)cc[n+]1Cc1ccc2ccccc2n1 reportedmeasurement=17.1
